Test system: OVCAR-4
EXPERIMENT NOTES: NCI tumour cell line growth inhibition, 48 h
The source made the active and inactive calls. Cut-off read from the data, not from the text of the source: active = GI50 up to about 1.1 µM and inactive = higher.
MEASUREMENT KIND: GI50

COc1ccc(-c2nc3c(nc2-c2ccc(OC)cc2)N(C)S(=O)(=O)N=C3N)cc1
14.1 µM (inactive)

// next entry
Measured GI50, `c1cc2c(cc1C1=NCCN1)c1cc(C3=NCCN3)ccc1n2CC1CCCCC1` : 22.5 µM (inactive)

====

System: SK-MEL-28
EXPERIMENT NOTES: NCI tumour cell line growth inhibition, 48 h
Calls of active or inactive are those of the source. Rule as the data show it: active = GI50 up to about 1.1 µM and inactive = higher.
MEASUREMENT KIND: GI50

Result for c1ccc(C2=NNC3c4ccccc4-c4ccccc4N3C2)cc1 (stereo not given) , tested on SK-MEL-28, GI50: 35.6 µM (inactive)

Form field, GI50 with SK-MEL-28, item `c1ccc(-c2cnc(-c3ccc(-c4ncc(-c5ccccc5)o4)cc3)o2)cc1` : > 100 µM (inactive)

Form field GI50 for item `ClCCc1ccccc1CC1=NCCc2ccccc21` on SK-MEL-28: 47.6 µM (inactive)

Simply: CCSC12CC3c4cccc5c4C(CN5C(=O)c4ccccc4)CC3(O1)N(C)C2=O (stereo not given) , SK-MEL-28, GI50 = 48.4 µM (inactive)

Bench note, SK-MEL-28: entry CCN1CN(c2ccccc2)C2(CCN(CC3COc4ccccc4O3)CC2)C1=O (stereo not given) , its GI50 = 32.5 µM (inactive)
